I'd be grateful if you could share measured hAMYR3 Potency, 1% HSA, EC50 [pM] for these entries.
- Target or test system: T1, human amylin-3(a) receptor (human, UniProt P30988 25-474; O60896 24-148)
- T1 sequence (looked up) 1: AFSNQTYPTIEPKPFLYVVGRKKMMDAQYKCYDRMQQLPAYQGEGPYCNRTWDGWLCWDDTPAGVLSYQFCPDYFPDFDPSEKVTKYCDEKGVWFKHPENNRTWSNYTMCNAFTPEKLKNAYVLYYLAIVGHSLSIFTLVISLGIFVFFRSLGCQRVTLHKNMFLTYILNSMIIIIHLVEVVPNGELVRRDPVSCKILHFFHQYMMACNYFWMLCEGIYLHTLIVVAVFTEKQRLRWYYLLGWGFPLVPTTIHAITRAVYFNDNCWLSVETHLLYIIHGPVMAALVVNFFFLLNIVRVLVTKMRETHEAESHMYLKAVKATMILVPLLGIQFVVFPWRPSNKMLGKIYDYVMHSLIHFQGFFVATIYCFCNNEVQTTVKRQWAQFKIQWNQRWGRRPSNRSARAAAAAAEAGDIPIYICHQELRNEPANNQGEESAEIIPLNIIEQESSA
- T1 sequence (looked up) 2: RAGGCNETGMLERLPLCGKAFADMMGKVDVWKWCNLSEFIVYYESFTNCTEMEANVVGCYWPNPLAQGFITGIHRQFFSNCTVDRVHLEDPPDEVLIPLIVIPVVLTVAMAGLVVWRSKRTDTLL
- Assay name: cell-based or functional assay
Numbered stars: 1 amine (or outer) side, 2 acyl side, 3 side chain; on linkers, the order of the positions; unused ones are H or OH. Square brackets hold non-standard residues; d marks the D form. Side chains are listed from the residue outwards. * marks the point of attachment. C20 diacid = O=C(O)CCCCCCCCCCCCCCCCCCC(=O)*; C18 diacid = O=C(O)CCCCCCCCCCCCCCCCC(=O)*; C16 diacid = O=C(O)CCCCCCCCCCCCCCC(=O)*; γGlu = O=C(O)[C@H](CCC(=O)[*:2])N[*:1]; Chem. 28 = not defined here; AEEA = NCCOCCOCC(=O)O; Aib = CC(C)(N)C(=O)O
One number for each entry, in pM.

Example results:
hAMYR3 Potency, 1% HSA, EC50 [pM] for Compound 100 (reading uncertain) peptide: H[Aib]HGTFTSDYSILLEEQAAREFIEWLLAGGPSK(Chem. 28)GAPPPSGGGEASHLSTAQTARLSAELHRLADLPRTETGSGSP-NH2 ?
210

Note, next up: Compound 47 (reading uncertain) peptide: H[Aib]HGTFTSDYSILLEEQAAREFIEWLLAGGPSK(Chem. 28)GAGQAPGQAPGASHLSTAQTQRLSAELHELATLPRTETGSGSP-NH2
55.8

Note, next up: Compound 53 (reading uncertain) peptide: Y[Aib]EGTFTSDYSILLEEQAAREFIEWLLAGGPSSGAGQAPGQAPGASHLSTAALGRLSAELHK(Chem. 28)LATLPRTETGSGSP-NH2
75.9

Note, next up: Compound 102 (reading uncertain) peptide: Y[Aib]EGTFTSDYSILLEEQAAREFIEWLLAGGPSSGAGQAPGQAPGASHLSTAQTQRLSAELHQLK(Chem. 28)TLPRTETGSGSP-NH2
134

Note, next up: Compound 109 (not fully specified; reading uncertain) peptide: Y[Aib]EGTFTSDYSILLEEQAAREFIEWLLAGGPSSGAPPPSGGGEASHLSTAQTQRLSAK(Chem. 28)LHRLATLPRTETGSGSP-NH2
32

Note, next up: Compound 111 (peptide) peptide: Y[Aib]EGTFTSDYSILLEEQAAREFIEWLLAGGPSSGAGQAPGQAPGASHLSTAQTQRLSAELHRLK([AEEA-AEEA-AEEA-γGlu-C18 diacid])TLPRTETGSGSP-NH2
66.4

Dear colleague, could you send me hAMYR3 Potency, 1% HSA, EC50 [pM] for each of the items below? Thanks.
1. Compound 64 (peptide) peptide: H[Aib]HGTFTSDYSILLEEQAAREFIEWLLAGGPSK([AEEA-AEEA-γGlu-C18 diacid])GEASQLSTAALGRLSAELHQLATLPRTETGSGSP-NH2
2. Compound 82 (peptide) peptide: H[Aib]HGTFTSDYSILLEEQAAREFIEWLLAGGPSSGEASHLSTAQTQRLSAK([AEEA-AEEA-γGlu-C18 diacid])LHRLATLPRTETGSGSP-NH2

1. 109
2. 38

Dear colleague, could you send me hAMYR3 Potency, 1% HSA, EC50 [pM] for each of the items below? Thanks.
1. Compound 96 (peptide) peptide: Y[Aib]EGTFTSDYSILLEEQAAREFIEWLLAGGPSGGGGEASHLSTAQTQRLSAELHK([AEEA-AEEA-γGlu-C20 diacid])LATLPRTETGSGSP-NH2
2. Compound 94 (peptide) peptide: Y[Aib]EGTFTSDYSILLEEQAAREFIEWLLAGGPSRGEASHLSTAQTQRLSAELHK([AEEA-AEEA-γGlu-C20 diacid])LATLPRTETGSGSP-NH2
3. Compound 15 (peptide) peptide: H[Aib]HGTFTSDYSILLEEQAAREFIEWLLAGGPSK([AEEA-AEEA-γGlu-C18 diacid])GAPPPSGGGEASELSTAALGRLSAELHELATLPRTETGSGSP-NH2
4. Compound 59 (peptide) peptide: Y[Aib]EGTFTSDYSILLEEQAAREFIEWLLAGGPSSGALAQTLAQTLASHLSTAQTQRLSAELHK([AEEA-AEEA-γGlu-C16 diacid])LATLPRTETGSGSP-NH2
5. Compound 57 (reading uncertain) peptide: Y[Aib]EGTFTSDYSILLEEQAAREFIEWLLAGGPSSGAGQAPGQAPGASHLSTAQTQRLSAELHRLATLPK(Chem. 28)TETGSGSP-NH2

[595, 377, 82.2, 24.2, 85]

Attribution: patent US20260174875A1
